Numbers sourced from patent US20120231006A1.

- system: T1, mOrai1-hOrai1 ECL2 (SPTKPPAE) protein (human/mouse chimera, UniProt Q8BWG9 1-304 (mouse entry))
- T1 construct: also called Ch
- T1 sequence (Q8BWG9 other isoform, or with tags, fused parts or gaps): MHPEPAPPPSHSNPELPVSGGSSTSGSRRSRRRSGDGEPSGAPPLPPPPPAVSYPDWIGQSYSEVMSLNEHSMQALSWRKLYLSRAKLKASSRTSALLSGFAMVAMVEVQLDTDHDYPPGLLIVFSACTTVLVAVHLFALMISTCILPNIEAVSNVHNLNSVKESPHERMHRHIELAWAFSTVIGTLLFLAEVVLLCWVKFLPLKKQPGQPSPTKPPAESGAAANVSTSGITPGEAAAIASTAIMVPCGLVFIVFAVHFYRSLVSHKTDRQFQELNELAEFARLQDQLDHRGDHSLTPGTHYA
- assay comment: flow cytometry on HEK-293 cells transfected with the chimera (loss of binding experiment)
measurement name: binding result

Lookup: Note binding result for the binder shown: mAb 5A4.2 (antibody, human IgG2, lambda, V domains shown, fully human IgG2 lambda, Campaign 2) VH: QVQLVQSGAEVKKPGASVKVSCKASGYTFTDYYMNWVRQAPGQGLEWMGWINPNSGGTKYAQKFQGRVTMTRDTSIRTAYMELSRLRSDDTAVYYCSREYGGNSDWFDPWGQGTLVTVSS VL: QSVLTQPPSVSGAPGQRVTISCTGSSSNIGAGYDVHWYQQLPGTAPKLLIYGNSNRPSGVPDRFSGSKSGTSASLAITGLQAEDEADYYCQSYDNRLSDSVVIGGGTKLTVQG
Found: no binding

Lookup: Please indicate binding result recorded for mAb 2D2.1 (antibody, human IgG2, lambda, V domains shown, fully human IgG2 lambda, Campaign 1; also called mAb 2D.1) VH: QVQLQQWGAGLLKPSETLSLTCAVYGGSFSGYYWSWIRQPPGKGLEWIGEIDHSGRINYNPALKSRLTISVDTSKNQFSLKLSSVTAADTAVYYCARAGSGGYEDWFDPWGQGTLVTVSS VL: QSVLTQPPSVSGAPGQRVTISCTGSSSNIGAGYNVHWYQQFPRTDPKLLIYVYNIRPSGVPDRFSGSRSGTSASLAITGLQTEDEADYYCQSYDSSLSGVVFGGGTKLTVLG
Found: no binding

Lookup: Identify measured binding result corresponding to mAb 5B5.2 (antibody, human IgG2, lambda, V domains shown, fully human IgG2 lambda, Campaign 2; same chains as 5B5.1) VH: QVQLVQSGAEVKKPGASVKVSCKASGYTFTDYYINWVRQAPGQGLEWMGWINPNSGGTDYAQKFQGRVTMTRDTSIRTAYMELNRLTSDDTAVYYCAREYGGYEDWFDPWGQGTLVTVSS VL: QSVLTQPPSVSGAPGQRVTISCTGSNSNIGAGFDVHWYQQLPGTVPKLLIYGNNNRPSGVPDRFSGSKSGTSASLAITGLQAEDEADYYCQSYDSRLTVFGGGTKLTVLG
Found: no binding
